Biological target: GST-ANAC019 NAC domain (Arabidopsis thaliana, UniProt Q9C932 14-162)
Sequence: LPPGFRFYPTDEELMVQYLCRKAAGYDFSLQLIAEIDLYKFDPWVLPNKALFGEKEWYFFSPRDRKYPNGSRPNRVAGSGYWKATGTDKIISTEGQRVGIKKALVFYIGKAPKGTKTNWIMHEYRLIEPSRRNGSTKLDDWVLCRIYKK
Test: universal protein binding microarray (PBM); high values mean tight binding
Conditions: protein: recombinant; tags: GST; chain copies: 2; dsDNA, one strand shown

sequence data | binding signal (E-score)
TCACGTAA | 0.47
AGCGTGTC | 0.206
AACGTAGA | 0.0983
CTTCCTTA | 0.0721
GAAGACCA | 0.0558
CTGTTGAC | 0.107
ACGGAAAC | 0.412
TACGTTAA | 0.0653
ACTTAACC | 0.17
GCACGGTA | 0.2
GTTGAGTA | 0.0635
ATGCCGTA | 0.395
CACGCCAG | 0.0856
GCGTAATA | 0.0565
ACGTTTCC | 0.312
CACGCAAA | 0.421
AGGTTACC | 0.0729
TGAAGCAA | 0.0575
ATTACGTA | 0.474
AGGGAAAC | 0.0754
CTTGCTTC | 0.0507
CCCCACCC | 0.177
GGAAGTCA | 0.0521
GACGTAAA | 0.298
CTCACGCA | 0.359
AAATACGT | 0.226
CAAGGAAA | 0.165
GCACGTAA | 0.478
ACGCTACT | 0.123
CCCCGCCC | 0.329
AGACACGC | 0.0909
GCAAGTAA | 0.211
CACGGAAC | 0.48
CACGTAAA | 0.43
GCGTGTGA | 0.191
GTAAGTAA | 0.0906
ACGCAAGA | 0.243
AAGTAAGC | 0.104
ACACGTCA | 0.436
GCACGTCA | 0.421
CCACACGC | 0.242
AGTCAACA | 0.125
AAGTCAGA | 0.0582
GAAGGAAA | 0.118
ACGTAACT | 0.48
AGGAAAGG | 0.0699
ACACGTTA | 0.165
AGGGAAAT | 0.0765
ACGGAACA | 0.418
CACGTTTC | 0.381
GTAAGTCA | 0.134
AAGCACGC | 0.127
GGGGGAAA | 0.12
ACGGAACC | 0.454
GAGTTGAC | 0.0811
GTACGTTA | 0.0888
CGAGGAAA | 0.0533
GAAGTCAA | 0.0675
ATTTCCCC | 0.13
CGTCAACG | 0.109
CTACACGC | 0.11
TCACGGAA | 0.465
AGAAAGTC | 0.0754
ACGGCAAC | 0.386
GAGGTAAC | 0.078
CTTTACGC | 0.0905

====

target: GST-WRKY1(266-371) (Arabidopsis thaliana, UniProt Q9SI37 266-371); assay: universal protein binding microarray (PBM); transcription factors of Arabidopsis thaliana; high values mean tight binding; conditions: protein: recombinant; tags: GST; dsDNA, one strand shown
Sequence (Q9SI37 266-371): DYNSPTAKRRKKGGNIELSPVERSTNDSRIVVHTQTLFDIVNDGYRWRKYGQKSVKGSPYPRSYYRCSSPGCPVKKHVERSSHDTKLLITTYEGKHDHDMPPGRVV

sequence data | binding signal [E-score]
GACTTTTA | 0.414
CTTGACTC | 0.466
GCGGTCAA | 0.487
GAGTCAAC | 0.487
GCCGTCAA | 0.402
AGGTCGTC | 0.416
ACACGTCA | 0.251
ACTTGACT | 0.456
ACGCAAGG | 0.201
ACCTTGAC | 0.472
TAGAGTAA | 0.0876
CCTTTGAC | 0.475
AAGACCAG | 0.427
GGTCAGAA | 0.444
TGACTAAA | 0.42
ATTGACTA | 0.466
ATCGGTCA | 0.451
